target: Human KDR (residues 790-1356) (Homo sapiens (Human), UniProt P35968); test: Human KDR kinase assay, HTRF KinEase (Example B-2); assay type: biochemical; settings: protocol of Example B-2 (other compounds)
Sequence (P35968 790-1356): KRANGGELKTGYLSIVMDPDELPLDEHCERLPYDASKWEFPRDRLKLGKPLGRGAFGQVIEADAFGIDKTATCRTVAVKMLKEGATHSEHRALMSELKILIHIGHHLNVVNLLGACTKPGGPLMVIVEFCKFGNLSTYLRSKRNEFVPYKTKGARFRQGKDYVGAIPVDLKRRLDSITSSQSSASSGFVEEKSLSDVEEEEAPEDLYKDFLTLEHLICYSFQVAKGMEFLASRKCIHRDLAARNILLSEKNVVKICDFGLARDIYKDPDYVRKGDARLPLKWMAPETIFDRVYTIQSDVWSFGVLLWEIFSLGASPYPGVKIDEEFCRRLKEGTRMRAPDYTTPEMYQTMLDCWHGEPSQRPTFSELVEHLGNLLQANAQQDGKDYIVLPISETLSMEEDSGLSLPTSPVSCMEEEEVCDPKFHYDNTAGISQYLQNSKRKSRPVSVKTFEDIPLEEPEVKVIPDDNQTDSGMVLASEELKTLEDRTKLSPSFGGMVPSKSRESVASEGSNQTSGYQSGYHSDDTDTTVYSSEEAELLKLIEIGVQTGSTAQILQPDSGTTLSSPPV
Where a name gives a salt, the structure may show the parent alone.
recorded metric: IC50

Query: Read off the recorded IC50 for `COc1cc2nccc(Oc3ccc(NC(=O)c4cn(CC(F)(F)F)c(C)c(-c5ccc(F)cc5)c4=O)cc3F)c2cc1OC`
Reply: 100 to 300 nM

Query: Read off the recorded IC50 for `CCc1nc(C)c(-c2ccc(F)cc2)c(O)c1C(=O)Nc1ccc(Oc2ccnc3cc(OC)cnc23)c(F)c1`
Reply: < 100 nM

Query: Read off the recorded IC50 for `CCn1cc(C(=O)Nc2ccc(Oc3ccnc4cc(OC)c(OC)nc34)c(F)c2)c(=O)c(-c2ccc(F)cc2)c1CO`
Reply: < 100 nM

Query: Read off the recorded IC50 for `COc1cc2nccc(Oc3ccc(NC(=O)c4cn(-c5cnn(C)c5)c(C)c(-c5ccc(F)cc5)c4=O)cc3F)c2nc1OC`
Reply: > 300 nM

Query: Read off the recorded IC50 for `COc1cc2nccc(Oc3ccc(NC(=O)c4n[nH]c(C)c(-c5ccc(F)cc5C)c4=O)cc3)c2nc1OC`
Reply: < 100 nM

Query: Read off the recorded IC50 for `COc1cc2nccc(Oc3ccc(NC(=O)c4cn(CC(F)(F)F)c(C)c(-c5ccc(F)cc5)c4=O)cc3F)c2nc1OC`
Reply: < 100 nM

Query: Read off the recorded IC50 for `COc1cc2nccc(Oc3ccc(NC(=O)c4cn(C)c(CF)c(-c5ccc(F)cc5)c4=O)cc3F)c2nc1OC`
Reply: 100 to 300 nM

Query: Read off the recorded IC50 for `COc1cc2nccc(Oc3ccc(NC(=O)c4c(C)c(Cl)c(C)n(-c5ccc(F)cc5)c4=O)cc3F)c2nc1OC`
Reply: > 300 nM

Query: Read off the recorded IC50 for `COc1nc2c(Oc3ccc(NC(=O)c4cn(C(C)C)cc(-c5ccc(F)cc5)c4=O)cc3F)ccnc2cc1Br`
Reply: > 300 nM

Query: Read off the recorded IC50 for `CCn1cc(C(=O)Nc2ccc(Oc3ccnc4cc(OC)cnc34)c(F)c2)c(=O)c(-c2ccc(F)cc2)c1C`
Reply: > 300 nM

Query: Read off the recorded IC50 for `COc1cnc2c(Oc3ccc(NC(=O)c4cn(C)c(C)c(-c5ccc(F)cc5C)c4=O)cc3F)ccnc2c1`
Reply: > 300 nM

Query: Read off the recorded IC50 for `COCc1c(-c2ccc(F)cc2)c(=O)c(C(=O)Nc2ccc(Oc3ccnc4cc(OC)cnc34)c(F)c2)cn1C`
Reply: > 300 nM

Query: Read off the recorded IC50 for `Cc1ncc(C(=O)Nc2ccc(Oc3ccnc4ccc(OCCN5CCOCC5)nc34)c(F)c2)c(O)c1-c1ccc(F)cc1`
Reply: 100 to 300 nM

Query: Read off the recorded IC50 for COc1cc2nccc(Oc3ccc(NC(=O)c4cn(C)cc(-c5ccccc5)c4=O)cc3)c2nc1OC [Compound 39, hydrochloride]
Reply: < 100 nM

Query: Read off the recorded IC50 for `COc1cc2nccc(Oc3ccc(NC(=O)c4c5n(cc(-c6ccc(F)cc6)c4=O)CCC5)cc3F)c2cc1OC`
Reply: < 100 nM

Query: Read off the recorded IC50 for `COc1cnc2c(Oc3ccc(NC(=O)c4cnc(C(F)(F)F)c(-c5ccc(F)cc5)c4O)cc3F)ccnc2c1`
Reply: > 300 nM

Query: Read off the recorded IC50 for `CCc1nc(C)c(-c2ccc(F)cc2C)c(O)c1C(=O)Nc1ccc(Oc2ccnc3cc(OC)c(OC)nc23)cc1`
Reply: < 100 nM

Query: Read off the recorded IC50 for `COc1cnc2c(Oc3ccc(NC(=O)c4cnc(C)n(-c5ccc(F)cc5)c4=O)cc3F)ccnc2c1`
Reply: > 300 nM

Query: Read off the recorded IC50 for `COc1cc2nccc(Oc3ccc(NC(=O)c4cnc(C)c(-c5ccc(F)cc5)c4O)cc3F)c2nc1OC`
Reply: < 100 nM

Query: Read off the recorded IC50 for `COC(=O)c1cnc2c(Oc3ccc(NC(=O)c4cnc(C)c(-c5ccc(F)cc5)c4O)cc3F)ccnc2c1`
Reply: > 300 nM

Query: Read off the recorded IC50 for `COc1ccc2nccc(Oc3ccc(NC(=O)c4ccc(C)n(-c5ccc(F)cc5C)c4=O)cc3F)c2n1`
Reply: > 300 nM

Query: Read off the recorded IC50 for `COc1cnc2c(Oc3ccc(NC(=O)c4cn(C)c(CO)c(-c5ccc(F)cc5)c4=O)cc3F)ccnc2c1`
Reply: > 300 nM

Query: Read off the recorded IC50 for `COc1ccc2nccc(Oc3ccc(NC(=O)c4cn(C5CC5)c(C)c(-c5ccc(F)cc5C)c4=O)cc3F)c2n1`
Reply: > 300 nM

Query: Read off the recorded IC50 for COc1cc2nccc(Oc3ccc(NC(=O)c4cn(C)cc(-c5cccc(F)c5)c4=O)cc3F)c2nc1OC [Compound 35, hydrochloride]
Reply: < 100 nM

Query: Read off the recorded IC50 for `COc1cnc2c(Oc3ccc(NC(=O)c4cn(C)c(CO)c(-c5ccc(F)cc5)c4=O)cc3)ccnc2c1`
Reply: > 300 nM

Query: Read off the recorded IC50 for `COc1cc2nccc(Oc3ccc(NC(=O)c4cn(C(C)C)c(C)c(-c5ccc(F)cc5)c4=O)cc3)c2nc1OC`
Reply: < 100 nM

Query: Read off the recorded IC50 for `COc1cc2nccc(Oc3ccc(NC(=O)c4cc(C#N)c(C)n(-c5ccc(F)cc5)c4=O)cc3F)c2nc1OC`
Reply: > 300 nM

Query: Read off the recorded IC50 for `COc1cc2nccc(Oc3ccc(NC(=O)c4c(C)c(Cl)c(C)n(-c5ccc(F)cc5)c4=O)cc3)c2nc1OC`
Reply: > 300 nM
